Provenance of the data: patent US7658917

# test-system: natural β-amyloid peptide β-AP1-40 (human)
# Sequence (peptide, as listed by the source): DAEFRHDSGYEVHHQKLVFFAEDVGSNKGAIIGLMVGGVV
# protocol-text: cell-based or functional assay
Square brackets hold non-standard residues; d marks the D form. * marks the point of attachment. Cholyl = C[C@H](CCC(=O)*)[C@H]1CC[C@H]2[C@@H]3[C@H](O)C[C@@H]4C[C@H](O)CC[C@]4(C)[C@H]3C[C@H](O)[C@]12C; Deoxycholoyl = C[C@H](CCC(=O)*)[C@H]1CC[C@H]2[C@@H]3CC[C@@H]4C[C@H](O)CC[C@]4(C)[C@H]3C[C@H](O)[C@]12C; iminobiotinyl = N=C1N[C@H]2[C@H](CS[C@H]2CCCCC(=O)*)N1; Tyr(3-I) = N[C@@H](Cc1ccc(O)c(I)c1)C(=O)O
Listed next: entries and their corresponding ΔLag; nucleation assay; 100 mole %.

binder: Cholyl-KLVFF-OH [cholyl-Aβ16-20]
qualifying-sign: =
ΔLag; nucleation assay; 100 mole % (ratio): 1.8
--
binder: Cholyl-LAFFA-OH (SMILES CC(C)C[C@H](NC(=O)CC[C@@H](C)[C@H]1CC[C@H]2[C@@H]3[C@H](O)C[C@@H]4C[C@H](O)CC[C@]4(C)[C@H]3C[C@H](O)[C@]12C)C(=O)N[C@@H](C)C(=O)N[C@@H](Cc1ccccc1)C(=O)N[C@@H](Cc1ccccc1)C(=O)N[C@@H](C)C(=O)O) [CA-LAFFA-oh]
qualifying-sign: =
ΔLag; nucleation assay; 100 mole % (ratio): 1.5
--
binder: Cholyl-QKLVFF-OH (SMILES CC(C)C[C@H](NC(=O)[C@H](CCCCN)NC(=O)[C@H](CCC(N)=O)NC(=O)CC[C@@H](C)[C@H]1CC[C@H]2[C@@H]3[C@H](O)C[C@@H]4C[C@H](O)CC[C@]4(C)[C@H]3C[C@H](O)[C@]12C)C(=O)N[C@H](C(=O)N[C@@H](Cc1ccccc1)C(=O)N[C@@H](Cc1ccccc1)C(=O)O)C(C)C) [cholyl-Aβ15-20]
qualifying-sign: >
ΔLag; nucleation assay; 100 mole % (ratio): 5
--
binder: Cholyl-Phe-Phe-Ala-OH (SMILES C[C@H](NC(=O)[C@H](Cc1ccccc1)NC(=O)[C@H](Cc1ccccc1)NC(=O)CC[C@@H](C)[C@H]1CC[C@H]2[C@@H]3[C@H](O)C[C@@H]4C[C@H](O)CC[C@]4(C)[C@H]3C[C@H](O)[C@]12C)C(=O)O) [CA-FFA-oh]
qualifying-sign: =
ΔLag; nucleation assay; 100 mole % (ratio): 1
--
binder: H-LVFFA-NH2 [h-LVFFA-nh2]
qualifying-sign: =
ΔLag; nucleation assay; 100 mole % (ratio): 1.3
--
binder: Cholyl-FFVLA-OH (SMILES CC(C)C[C@H](NC(=O)[C@@H](NC(=O)[C@H](Cc1ccccc1)NC(=O)[C@H](Cc1ccccc1)NC(=O)CC[C@@H](C)[C@H]1CC[C@H]2[C@@H]3[C@H](O)C[C@@H]4C[C@H](O)CC[C@]4(C)[C@H]3C[C@H](O)[C@]12C)C(C)C)C(=O)N[C@@H](C)C(=O)O) [CA-FFVLA-oh]
qualifying-sign: >
ΔLag; nucleation assay; 100 mole % (ratio): 5
--
binder: Cholyl-LVAFA-OH (SMILES CC(C)C[C@H](NC(=O)CC[C@@H](C)[C@H]1CC[C@H]2[C@@H]3[C@H](O)C[C@@H]4C[C@H](O)CC[C@]4(C)[C@H]3C[C@H](O)[C@]12C)C(=O)N[C@H](C(=O)N[C@@H](C)C(=O)N[C@@H](Cc1ccccc1)C(=O)N[C@@H](C)C(=O)O)C(C)C) [CA-LVAFA-oh]
qualifying-sign: =
ΔLag; nucleation assay; 100 mole % (ratio): 2.7
--
binder: Cholyl-LV[Tyr(3-I)]FA-OH [CA-LV(IY)FA-oh]
qualifying-sign: >
ΔLag; nucleation assay; 100 mole % (ratio): 5
--
binder: Deoxycholoyl-LVFFA-OH [DeoxyCA-LVFFA-oh]
qualifying-sign: =
ΔLag; nucleation assay; 100 mole % (ratio): 3
--
binder: Cholyl-LVFFA-OH (SMILES CC(C)C[C@H](NC(=O)CC[C@@H](C)[C@H]1CC[C@H]2[C@@H]3[C@H](O)C[C@@H]4C[C@H](O)CC[C@]4(C)[C@H]3C[C@H](O)[C@]12C)C(=O)N[C@H](C(=O)N[C@@H](Cc1ccccc1)C(=O)N[C@@H](Cc1ccccc1)C(=O)N[C@@H](C)C(=O)O)C(C)C) [cholyl-Aβ17-21]
qualifying-sign: >
ΔLag; nucleation assay; 100 mole % (ratio): 5
--
binder: iminobiotinyl-KLVFF-OH [iminobiotinyl-Aβ16-20]
qualifying-sign: =
ΔLag; nucleation assay; 100 mole % (ratio): 1.3
--
binder: Cholyl-FKFVL-OH (SMILES CC(C)C[C@H](NC(=O)[C@@H](NC(=O)[C@H](Cc1ccccc1)NC(=O)[C@H](CCCCN)NC(=O)[C@H](Cc1ccccc1)NC(=O)CC[C@@H](C)[C@H]1CC[C@H]2[C@@H]3[C@H](O)C[C@@H]4C[C@H](O)CC[C@]4(C)[C@H]3C[C@H](O)[C@]12C)C(C)C)C(=O)O) [CA-FKFVL-oh]
qualifying-sign: =
ΔLag; nucleation assay; 100 mole % (ratio): 0.8
--
binder: Cholyl-KLVFF-NH2 [cholyl-Aβ16-20-amide]
qualifying-sign: =
ΔLag; nucleation assay; 100 mole % (ratio): 5.4
--
binder: Cholyl-Phe-Phe-Val-OH (SMILES CC(C)[C@H](NC(=O)[C@H](Cc1ccccc1)NC(=O)[C@H](Cc1ccccc1)NC(=O)CC[C@@H](C)[C@H]1CC[C@H]2[C@@H]3[C@H](O)C[C@@H]4C[C@H](O)CC[C@]4(C)[C@H]3C[C@H](O)[C@]12C)C(=O)O) [CA-FFV-oh]
qualifying-sign: =
ΔLag; nucleation assay; 100 mole % (ratio): 2.2
--
binder: H-KLVFF-OH [unmodified Aβ16-20]
qualifying-sign: =
ΔLag; nucleation assay; 100 mole % (ratio): 1.1
